- TARGET_ENTITY: Dopamine receptor (Bos taurus) (UniProt Q95136+P20288)
- PROCEDURE_DETAILS: In vitro ability to enhance the binding of [3H]-ADTN to dopamine receptor obtained from bovine caudate membranes at a concentration of 10E-7 M
MEASURED_ATTRIBUTE: Increase

COMPOUND | RECORDED_RESULT
NC(=O)CN1C(=O)C[C@H](NC(=O)C2CCCN2)C1=O (stereo partly specified) | 42%
NC(=O)CN1C[C@H](NC(=O)C2CCCN2)C1=O (stereo partly specified) | 8%
NC(=O)CN1CCCC[C@@H](NC(=O)C2CCCN2)C1=O (stereo partly specified) | 38%
NC(=O)CN1OC[C@H](NC(=O)C2CCCN2)C1=O (stereo partly specified) | 30%
NC(=O)CN1CC[C@H](NC(=O)C2CCCN2)C1=O (stereo partly specified) | 5.6%
NC(=O)CN1CCC[C@@H](NC(=O)C2CCCN2)C1=O (stereo partly specified) | 16%

* * *

- TARGET_ENTITY: Dopamine receptor (Bos taurus) (UniProt Q95136+P20288)
- PROCEDURE_DETAILS: In vitro ability to enhance the binding of [3H]ADTN to dopamine receptor obtained from bovine caudate membranes at a concentration of 10E-12 M
MEASURED_ATTRIBUTE: Increase (%)

MOLECULE | TARGET_ENTITY | UNIT_ABBREVIATION | RECORDED_RESULT
NC(=O)CN1C(=O)C[C@H](NC(=O)C2CCCN2)C1=O (stereo not given in full) | Dopamine receptor (Bos taurus) (UniProt Q95136+P20288) | % | 4
NC(=O)CN1OC[C@H](NC(=O)C2CCCN2)C1=O (stereo not given in full) | Dopamine receptor (Bos taurus) (UniProt Q95136+P20288) | % | 2
NC(=O)CN1CCC[C@@H](NC(=O)C2CCCN2)C1=O (stereo not given in full) | Dopamine receptor (Bos taurus) (UniProt Q95136+P20288) | % | 2
NC(=O)CN1C[C@H](NC(=O)C2CCCN2)C1=O (stereo not given in full) | Dopamine receptor (Bos taurus) (UniProt Q95136+P20288) | % | 1.5
NC(=O)CN1CC[C@H](NC(=O)C2CCCN2)C1=O (stereo not given in full) | Dopamine receptor (Bos taurus) (UniProt Q95136+P20288) | % | 2.2

* * *

- TARGET_ENTITY: Dopamine receptor (Bos taurus) (UniProt Q95136+P20288)
- PROCEDURE_DETAILS: In vitro ability to enhance the binding of [3H]ADTN to dopamine receptor obtained from bovine caudate membranes at a concentration of 10E-5 M
Known Increase of a selection of molecules
MEASURED_ATTRIBUTE: Increase

MOLECULE | TARGET_ENTITY | RECORDED_RESULT
NC(=O)CN1CCC[C@@H](NC(=O)C2CCCN2)C1=O (stereo partly specified) | Dopamine receptor (Bos taurus) (UniProt Q95136+P20288) | 18%
NC(=O)CN1CCCC[C@@H](NC(=O)C2CCCN2)C1=O (stereo partly specified) | Dopamine receptor (Bos taurus) (UniProt Q95136+P20288) | 27%
NC(=O)CN1C(=O)C[C@H](NC(=O)C2CCCN2)C1=O (stereo partly specified) | Dopamine receptor (Bos taurus) (UniProt Q95136+P20288) | 33%
NC(=O)CN1CC[C@H](NC(=O)C2CCCN2)C1=O (stereo partly specified) | Dopamine receptor (Bos taurus) (UniProt Q95136+P20288) | 1.6%
NC(=O)CN1C[C@H](NC(=O)C2CCCN2)C1=O (stereo partly specified) | Dopamine receptor (Bos taurus) (UniProt Q95136+P20288) | 22%
NC(=O)CN1OC[C@H](NC(=O)C2CCCN2)C1=O (stereo partly specified) | Dopamine receptor (Bos taurus) (UniProt Q95136+P20288) | 37%

* * *

Known Increase of a selection of molecules
- TARGET_ENTITY: Dopamine receptor (Bos taurus) (UniProt Q95136+P20288)
- PROCEDURE_DETAILS: In vitro ability to enhance the binding of [3H]ADTN to dopamine receptor obtained from bovine caudate membranes at a concentration of 10E-8 M

MOLECULE | Increase, %
NC(=O)CN1CCCC[C@@H](NC(=O)C2CCCN2)C1=O (stereo partly specified) | 35
NC(=O)CN1CC[C@H](NC(=O)C2CCCN2)C1=O (stereo partly specified) | 9.2
NC(=O)CN1C[C@H](NC(=O)C2CCCN2)C1=O (stereo partly specified) | 5
NC(=O)CN1OC[C@H](NC(=O)C2CCCN2)C1=O (stereo partly specified) | 14
NC(=O)CN1CCC[C@@H](NC(=O)C2CCCN2)C1=O (stereo partly specified) | 11
NC(=O)CN1C(=O)C[C@H](NC(=O)C2CCCN2)C1=O (stereo partly specified) | 13.5

Every entry's value here was drawn from ChEMBL document CHEMBL1126940.
